# test.summary: molar heat capacity at constant pressure; xn = mol fraction of the nth substance listed
# run.parameters: 353.15 K; 101 kPa; Liquid; Vacuum adiabatic calorimetry; x1 = 0.4
readout.kind: molar heat capacity at constant pressure (J/K/mol)
The reply should be a number in J/K/mol, with the unit left off.

These solved cases illustrate the format of a correct answer.
**Q:** # return recorded molar heat capacity at constant pressure for entry OCCOCCO [diethylene glycol] + O
**A:** 161.8

**Q:** Give molar heat capacity at constant pressure for OCCOCCOCCO [triethylene glycol] + O
**A:** 198.7

Turning now to a further record.
**Q:** Quote molar heat capacity at constant pressure reported for CC(O)CO (stereo not drawn) [1,2-propanediol] + O please.
**A:** 140.7

Value source: the NIST ThermoML archive (doi:10.1016/j.tca.2009.01.008)
